Note to self: these compounds have Ki reported for Carbonic anhydrase 4 (Bos taurus, UniProt Q95323) in various publications.
- tgt: Carbonic anhydrase 4 (Bos taurus, UniProt Q95323)
- Sequence (Q95323 whole entry): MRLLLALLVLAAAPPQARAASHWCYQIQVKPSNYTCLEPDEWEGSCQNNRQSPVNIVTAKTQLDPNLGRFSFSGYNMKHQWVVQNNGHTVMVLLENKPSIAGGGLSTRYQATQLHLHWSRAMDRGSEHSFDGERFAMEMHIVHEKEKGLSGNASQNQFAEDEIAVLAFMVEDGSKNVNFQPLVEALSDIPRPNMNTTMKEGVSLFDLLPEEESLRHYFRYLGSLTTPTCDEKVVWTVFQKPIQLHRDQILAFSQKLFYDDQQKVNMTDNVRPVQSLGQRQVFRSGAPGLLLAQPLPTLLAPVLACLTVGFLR
Report as: number unit

Here is how some compounds turned out for Ki.
compound | result
CCN(C(=O)CCCN)C1CC(C)S(=O)(=O)c2sc(S(N)(=O)=O)cc21 (stereo not given) | 32 nM
NS(=O)(=O)c1cc(S(N)(=O)=O)c(NC(=O)CN(CCN(CCN(CC(=O)O)CC(=O)Nc2cc(Cl)c(S(N)(=O)=O)cc2S(N)(=O)=O)CC(=O)O)CC(=O)O)cc1Cl | 41 nM
NS(=O)(=O)c1nc2ccc(OCCOC(=O)CN(CCN(CC(=O)O)c3ccccc3O)c3ccccc3O)cc2s1 | 7 nM

Inquiry: Write down Ki measured for item NCC(=O)NCC(=O)Nc1ccc(S(N)(=O)=O)cc1
Reply text: 154 nM

Inquiry: Respond only with Ki recorded for CNCC(=O)Nc1cc(Cl)c(S(N)(=O)=O)cc1S(N)(=O)=O
Reply text: 50 nM

====

Published pKi for the protein given by its sequence, assembled from different documents, is shown next.
Protein target, amino acids: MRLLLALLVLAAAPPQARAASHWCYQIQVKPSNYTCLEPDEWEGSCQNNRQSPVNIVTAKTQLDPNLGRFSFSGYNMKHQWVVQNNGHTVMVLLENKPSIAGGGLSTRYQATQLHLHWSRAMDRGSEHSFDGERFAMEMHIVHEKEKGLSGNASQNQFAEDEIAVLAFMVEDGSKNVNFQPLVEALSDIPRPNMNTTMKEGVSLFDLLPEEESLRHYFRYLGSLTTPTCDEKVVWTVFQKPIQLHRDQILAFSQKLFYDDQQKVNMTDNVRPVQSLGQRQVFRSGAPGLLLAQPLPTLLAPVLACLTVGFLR
Reminder that pKi means the negative base-10 logarithm of the concentration expressed in mol/L.

Illustrative cases are given below, each with its answer.
lineNotation | pKi
Cn1nc(S(N)(=O)=O)s/c1=N/C(=O)c1c(F)c(F)c(F)c(F)c1F | 8.10
O=[N+]([O-])c1ccc(S(=O)(=O)NO)cc1 | 7.15
CCc1cc(-c2ccccc2)cc(CC)[n+]1CC(=O)Nc1ccc(S(N)(=O)=O)cc1I | 7.19
NCC(=O)NCC(=O)Nc1cc(Cl)c(S(N)(=O)=O)cc1S(N)(=O)=O | 7.27
NS(=O)(=O)c1nc2ccc(NS(=O)(=O)C(F)(F)F)cc2s1 | 8.10

Inquiry: Output measured pKi for this item: NS(=O)(=O)c1cccc(NC(=O)CN(CCN(CCN(CC(=O)O)CC(=O)Nc2cccc(S(N)(=O)=O)c2)CC(=O)O)CC(=O)O)c1
Reply text: 6.37

====

Literature-derived Ki for UniProt Q95323 follows.
Give just the number in nM; leave the unit off.

lineNotation | Ki / nM
Cc1cc(C(C)C)[n+](CCc2ccc(S(N)(=O)=O)cc2)c(C(C)C)c1 | 70
NS(=O)(=O)c1cc(S(N)(=O)=O)c(C(=O)c2cccc(C(=O)O)n2)cc1Cl | 60
CCc1cc(-c2ccccc2)cc(CC)[n+]1CC(=O)Nc1ccc(S(=O)(=O)Nc2nnc(S(N)(=O)=O)s2)cc1 | 9

Inquiry: Please indicate recorded Ki of NS(=O)(=O)c1cccc(NS(=O)(=O)c2ccc(NC(=O)c3c(F)c(F)c(F)c(F)c3F)cc2)c1 measured with UniProt Q95323.
Reply text: 55

Inquiry: Fetch value of Ki on UniProt Q95323 for NS(=O)(=O)c1nnc(NC(=O)CCNC(=O)CN(CCN(CC(=O)O)CC(=O)O)CC(=O)O)s1 .
Reply text: 23

Inquiry: Give Ki only, for NS(=O)(=O)c1ccc(CCNC(=S)NC(=O)Nc2ccc(Cl)c(Cl)c2)cc1 , using UniProt Q95323 data.
Reply text: 24

Inquiry: Specify Ki for NS(=O)(=O)c1cc(S(N)(=O)=O)c(NS(=O)(=O)C(F)(F)C(F)(F)C(F)(F)C(F)(F)C(F)(F)C(F)(F)C(F)(F)C(F)(F)F)c(Cl)c1Cl , system UniProt Q95323.
Reply text: 765

Inquiry: Tell me its Ki on UniProt Q95323: NS(=O)(=O)c1ccc(CCC(=O)c2cccc(C(=O)O)n2)cc1
Reply text: 54

Inquiry: For UniProt Q95323, give the measured Ki of the entry NS(=O)(=O)c1cccc(NC(=O)CNCC(=O)O)c1
Reply text: 1500

====

Compiled from multiple publications: Ki readings for Carbonic anhydrase 4 (Bos taurus, UniProt Q95323).
- tgt: Carbonic anhydrase 4 (Bos taurus, UniProt Q95323)
- Sequence (Q95323 whole entry): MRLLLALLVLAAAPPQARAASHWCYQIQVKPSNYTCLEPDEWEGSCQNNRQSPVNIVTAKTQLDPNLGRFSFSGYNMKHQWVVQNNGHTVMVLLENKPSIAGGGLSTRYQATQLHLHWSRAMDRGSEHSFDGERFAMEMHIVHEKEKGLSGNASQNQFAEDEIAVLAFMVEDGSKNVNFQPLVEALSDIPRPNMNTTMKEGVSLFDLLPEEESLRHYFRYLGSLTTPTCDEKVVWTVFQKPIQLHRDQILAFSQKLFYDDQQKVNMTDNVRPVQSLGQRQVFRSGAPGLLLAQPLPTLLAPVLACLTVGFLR
Dear colleague, please return just the value in nM, with no unit written.

lineNotation | tgt | Ki [nM]
CC(C)c1cc(-c2ccccc2)cc(C(C)C)[n+]1CC(=O)Oc1ccc2nc(S(N)(=O)=O)sc2c1 | Carbonic anhydrase 4 (Bos taurus, UniProt Q95323) | 39

Inquiry: Specify measured Ki for Cn1nc(S(N)(=O)=O)s/c1=N/C(=O)CN(CCN(CC(=O)O)CC(=O)O)CC(=O)O .
Reply text: 26

Inquiry: Give the value of Ki reported for the following: C[C@H](CCC(=O)Nc1ccc(S(N)(=O)=O)cc1F)[C@H]1CC[C@H]2[C@@H]3C(=O)C[C@@H]4CC(=O)CC[C@]4(C)[C@H]3CC(=O)[C@]12C
Reply text: 28

Inquiry: Give the measured Ki for CNCC(=O)Nc1ccc(S(N)(=O)=O)cc1Cl
Reply text: 62

====

We begin with pKi values for Carbonic anhydrase 4 (Bos taurus, UniProt Q95323), as collected from the published literature.
// pKi: -log10(molar conc.)

lineNotation | resultType | number
NS(=O)(=O)c1nc2ccc(OCCOC(=O)c3c(F)c(F)c(F)c(F)c3F)cc2s1 | pKi | 7.96

Inquiry: Send back Carbonic anhydrase 4 (Bos taurus, UniProt Q95323) pKi of NS(=O)(=O)c1ccc(NC(=O)Nc2c(F)c(F)c(F)c(F)c2F)c(Br)c1 only.
Reply text: 6.44

Inquiry: Give Carbonic anhydrase 4 (Bos taurus, UniProt Q95323) pKi for the following compound: CC1(C)OC[C@@H]2O[C@@]3(COC(=O)NS(N)(=O)=O)OC(C)(C)O[C@H]3[C@@H]2O1
Reply text: 6.89

Inquiry: Recall the reported pKi of NS(=O)(=O)c1nnc(NC(=O)C23C[C@H]4C[C@@H](C2)C[C@@H](C3)C4)s1 when tested on Carbonic anhydrase 4 (Bos taurus, UniProt Q95323).
Reply text: 7.19

====

- tgt: Carbonic anhydrase 4 (Bos taurus, UniProt Q95323)
- Sequence (Q95323 whole entry): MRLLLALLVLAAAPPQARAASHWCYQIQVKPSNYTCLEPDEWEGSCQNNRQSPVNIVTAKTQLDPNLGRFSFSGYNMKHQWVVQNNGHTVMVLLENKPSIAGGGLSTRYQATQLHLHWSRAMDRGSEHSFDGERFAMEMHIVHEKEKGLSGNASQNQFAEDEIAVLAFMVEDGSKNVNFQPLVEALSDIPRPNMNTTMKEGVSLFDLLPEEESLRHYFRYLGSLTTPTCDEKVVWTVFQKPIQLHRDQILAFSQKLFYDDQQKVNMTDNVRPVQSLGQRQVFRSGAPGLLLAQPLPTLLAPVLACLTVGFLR
System: Carbonic anhydrase 4 (Bos taurus, UniProt Q95323) | Read-out: Ki | Origin: multiple publications
Unit µM implied. Number only.

compound | valueUnit | Ki
NS(=O)(=O)c1ccccc1NC(=O)C(F)(F)C(F)(F)C(F)(F)C(F)(F)C(F)(F)C(F)(F)C(F)(F)C(F)(F)F | µM | 1.5
CC(C)c1cc(-c2ccccc2)cc(C(C)C)[n+]1CC(=O)Nc1ccc2nc(S(N)(=O)=O)sc2c1 | µM | 0.038
CC(=O)Nc1ccc(S(=O)(=O)Nc2nnc(S(N)(=O)=O)s2)cc1F | µM | 0.004
NCC(=O)NCc1ccc(S(N)(=O)=O)cc1 | µM | 0.082

Inquiry: Tell me its Ki on Carbonic anhydrase 4 (Bos taurus, UniProt Q95323): NS(=O)(=O)c1ccc(CNS(=O)(=O)C(F)(F)C(F)(F)C(F)(F)C(F)(F)F)cc1
Reply text: 0.255

Inquiry: // output Ki; input NS(=O)(=O)c1ccc(CNS(=O)(=O)c2c(F)c(F)cc(F)c2F)cc1 ; system Carbonic anhydrase 4 (Bos taurus, UniProt Q95323)
Reply text: 0.135

Inquiry: Provide Ki, recorded with Carbonic anhydrase 4 (Bos taurus, UniProt Q95323), of CCc1cc(-c2ccccc2)cc(CC)[n+]1CC(=O)Nc1ccc(S(N)(=O)=O)cc1
Reply text: 0.17

Inquiry: Give Ki for NS(=O)(=O)c1nc2ccc(OCCOS(=O)(=O)C(F)(F)C(F)(F)C(F)(F)C(F)(F)C(F)(F)C(F)(F)C(F)(F)C(F)(F)F)cc2s1 tested on Carbonic anhydrase 4 (Bos taurus, UniProt Q95323).
Reply text: 0.005

Inquiry: Retrieve Ki on Carbonic anhydrase 4 (Bos taurus, UniProt Q95323); query C[C@H](CCC(=O)Nc1ccc(S(N)(=O)=O)cc1Cl)[C@H]1CC[C@H]2[C@@H]3CC[C@@H]4C[C@H](O)CC[C@]4(C)[C@H]3CC[C@]12C
Reply text: 0.054

Inquiry: Report measured Ki on Carbonic anhydrase 4 (Bos taurus, UniProt Q95323); entry: CN(CC(=O)NNc1ccc(S(N)(=O)=O)cc1)C(=N)N
Reply text: 0.245

Inquiry: Look up and report measured Ki (Carbonic anhydrase 4 (Bos taurus, UniProt Q95323)) for the following compound: CC(C)c1cc(-c2ccccc2)cc(C(C)C)[n+]1CC(=O)Nc1ccc(S(=O)(=O)Nc2cccc(S(N)(=O)=O)c2)cc1
Reply text: 0.072

Inquiry: Provide Ki, system Carbonic anhydrase 4 (Bos taurus, UniProt Q95323), entry NS(=O)(=O)c1nc2ccc(OC(=O)CN(CC(=O)O)CC(=O)O)cc2s1
Reply text: 0.013
